# target-entity: human ether-à-go-go-related gene (hERG) potassium channel (human, UniProt Q12809);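 further: peak tail current of the secondary pulse compared with the same well before compound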
# Sequence (Q12809 whole entry, looked up): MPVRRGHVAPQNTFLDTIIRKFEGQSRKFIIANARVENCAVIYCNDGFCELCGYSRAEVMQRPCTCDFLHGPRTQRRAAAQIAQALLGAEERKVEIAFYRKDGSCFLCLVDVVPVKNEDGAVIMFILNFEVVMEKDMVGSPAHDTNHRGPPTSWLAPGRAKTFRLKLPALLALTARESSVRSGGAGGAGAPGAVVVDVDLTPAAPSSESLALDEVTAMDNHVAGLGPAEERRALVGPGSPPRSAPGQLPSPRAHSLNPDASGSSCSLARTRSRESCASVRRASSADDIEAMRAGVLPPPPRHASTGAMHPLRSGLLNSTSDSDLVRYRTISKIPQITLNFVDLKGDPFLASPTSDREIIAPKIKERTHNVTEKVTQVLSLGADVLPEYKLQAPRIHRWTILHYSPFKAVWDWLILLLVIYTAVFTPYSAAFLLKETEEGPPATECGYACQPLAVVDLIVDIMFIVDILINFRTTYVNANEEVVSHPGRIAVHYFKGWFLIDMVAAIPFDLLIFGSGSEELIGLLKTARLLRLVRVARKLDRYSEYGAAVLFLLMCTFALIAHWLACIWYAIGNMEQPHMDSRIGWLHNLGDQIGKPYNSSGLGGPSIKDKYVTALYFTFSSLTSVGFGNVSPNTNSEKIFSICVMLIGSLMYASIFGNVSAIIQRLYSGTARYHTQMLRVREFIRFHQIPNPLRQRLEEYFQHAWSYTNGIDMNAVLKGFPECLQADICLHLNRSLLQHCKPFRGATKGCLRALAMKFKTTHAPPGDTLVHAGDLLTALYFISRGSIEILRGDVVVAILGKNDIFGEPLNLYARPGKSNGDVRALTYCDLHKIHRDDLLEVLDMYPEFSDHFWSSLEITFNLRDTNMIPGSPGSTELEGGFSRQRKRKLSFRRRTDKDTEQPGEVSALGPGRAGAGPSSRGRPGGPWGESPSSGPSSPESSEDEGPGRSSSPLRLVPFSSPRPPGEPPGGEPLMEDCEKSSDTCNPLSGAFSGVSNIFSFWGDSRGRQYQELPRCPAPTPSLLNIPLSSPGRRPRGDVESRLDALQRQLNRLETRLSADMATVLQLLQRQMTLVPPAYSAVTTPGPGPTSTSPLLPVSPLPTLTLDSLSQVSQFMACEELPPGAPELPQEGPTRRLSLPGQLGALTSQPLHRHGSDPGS
# assay-notes: primary screen, population patch clamp on CHO cells stably expressing hERG; higher = less effect of the substance
About 14,000 (4.5%) of roughly 310,000 compounds showed an effect of 50% or more. The effect is printed as a negative number. This is one part of a sample in which strong results are shown more often than they occur.
Please respond with reported hERG current change (%, negative = inhibition) at 10uM for every item in the list.
Value expressed in %; do not type the unit.

What does the data say about its hERG current change (%, negative = inhibition) at 10uM? Entry: CC1Cc2nc(SCC(=O)N3CCCC3)n(C)c(=O)c2S1 (stereo not shown)
-7.79

What does the data say about its hERG current change (%, negative = inhibition) at 10uM? Entry: `Clc1ccc2nc(-c3ccc(Br)s3)cn2c1`
8.14

What does the data say about its hERG current change (%, negative = inhibition) at 10uM? Entry: `COc1ccc(CC(=O)Nc2c(C(=O)N3CCN(c4ccccc4)CC3)oc3ccccc23)cc1OC`
-32.4

What does the data say about its hERG current change (%, negative = inhibition) at 10uM? Entry: `COc1ccc(N2CCN(C(=O)c3oc4ccccc4c3NC(=O)Cc3cccc(OC)c3)CC2)cc1`
-30.2

What does the data say about its hERG current change (%, negative = inhibition) at 10uM? Entry: `CCOC(=O)c1c(NC(=O)c2cccnc2)sc(C(C)=O)c1C`
-5.09

What does the data say about its hERG current change (%, negative = inhibition) at 10uM? Entry: O=C(NCCCN1CCCCC1)c1ccc(CS(=O)c2ccc(F)cc2)o1 (stereo not shown)
-0.35

What does the data say about its hERG current change (%, negative = inhibition) at 10uM? Entry: `CN(CC(=O)Nc1ccc(F)c(F)c1)S(=O)(=O)c1cccc2nsnc12`
-26.1

What does the data say about its hERG current change (%, negative = inhibition) at 10uM? Entry: `CCOc1ccc(/C=N/NC(=O)C2(O)c3ccccc3-c3ccccc32)cc1`
4.13

What does the data say about its hERG current change (%, negative = inhibition) at 10uM? Entry: COc1cccc(/C=N/NC(=O)CC2C(=O)NN=C2C)c1OC (stereo not shown)
2.5

What does the data say about its hERG current change (%, negative = inhibition) at 10uM? Entry: `Cc1ccnc(NC(=O)c2cccc(S(=O)(=O)N3CCCc4ccccc43)c2)c1`
-1.95
